- Test system: NCI-H23
- PROTOCOL NOTES: NCI tumour cell line growth inhibition, 48 h
The source made the active and inactive calls. Cut-off read from the data, not from the text of the source: active = GI50 up to about 1.1 µM and inactive = higher.
Form entry, call: pick from active, inactive

**Q:** Status in this test for CCOC(=O)c1ccc(NC(=O)Oc2ccc3c(C)cc(=O)oc3c2)cc1 ?
**A:** inactive

**Q:** Fill in: this test's call for COC(=O)c1cc(NC2OCC(OC(C)=O)C(OC(C)=O)C2OC(C)=O)nc(SC)c1C(=O)OC (stereo not drawn) is ___
**A:** inactive

**Q:** What was the test verdict on COc1cc(/C=C2\N=C(c3ccccc3)N(c3ccc(C(=O)c4ccccc4)cc3N3C(=O)/C(=C/c4cc(OC)c(OC)c(OC)c4)N=C3c3ccccc3)C2=O)cc(OC)c1OC ?
**A:** inactive

**Q:** Please state the recorded outcome for this compound: C[C@@H]1[C@@H]2[C@@H](C=C3C4CCC5Cc6nc7c(nc6C[C@@]5(C)C4C[C@H](O)[C@]32CO)CC2CCC3C4=C[C@H]5O[C@@]6(OC(C)(CO)C[C@@H]6O)[C@H](C)[C@@]5(O)[C@]4(C)[C@@H](O)CC3[C@]2(C)C7)O[C@]12CCC(C)(C)O2 (stereo partly drawn)
**A:** active

**Q:** Entry c1cnn(CN(Cn2cccn2)Cn2cccn2)c1 : call = ?
**A:** inactive

**Q:** GET /call?item= COc1cccc2c1CCc1sc(CN3CCN(C)CC3)nc1-2 returns the recorded outcome of this test.
**A:** inactive

**Q:** In this assay, the call recorded for CN1C2CCC1CC(=CCOC(c1ccc(F)cc1)c1ccc(F)cc1)C2 was what?
**A:** inactive

**Q:** Would you mind telling me which call this test gave C=CCc1cccc(/C=N\N/C(N)=N/O)c1O ?
**A:** inactive

Origin of values: ChEMBL document CHEMBL1201862
